Please provide measured pKd for the entries that follow.
pKd here: minus log base 10 of the concentration, concentration in moles per litre.

// returns pKd for CC(Nc1cc(F)cc(F)c1)c1cc(C(=O)N(C)C)cc2ncc(N3CCOCC3)nc12 (single isomer, unassigned) [Compound 12] with kinase enzymes (Homo sapiens, UniProt P48736); value = 5.94

// returns pKd for CC(Nc1cc(F)cc(F)c1)c1cncc2ncc(N3CCOCC3)nc12 (stereo not shown) with kinase enzymes (Homo sapiens, UniProt P48736); value = 5.57

// returns pKd for CC(Oc1cccc(F)c1)c1cc(C(=O)O)cc2ncc(N3CCOCC3)nc12 (single isomer, unassigned) [Compound 257b] with kinase enzymes (Homo sapiens, UniProt P48736); value = 5.51

// returns pKd for Cc1ccc(NC(C)c2cc(C(=O)NCCN(C)C)cc3ncc(N4CCOCC4)nc23)cc1F (single isomer, unassigned) [Compound 407a] with kinase enzymes (Homo sapiens, UniProt P48736); value = 5.10
